# TESTED TARGET: the molecule itself
# PROCEDURE SUMMARY: 15N relaxation (rotational correlation time against concentration); 15N-XIAP-UBA at 0.16-1.9 mM; T1 and T2 at 298 K; non-linear fit of the rotational correlation time; dimer to monomers
PROPERTY MEASURED: Kd

What value of Kd has been recorded for this entry: XIAP-UBA (UBA domain of X-linked inhibitor of apoptosis protein, residues 365-423) (domain or fragment, human, UniProt P98170 365-423, looked up, PDB 2KNA holds the longer construct 357-449; Used 15N- or 13C/15N-labelled or unlabelled; The tags are separated from XIAP-UBA by a thrombin site (LVPRG); also called XIAP UBA domain; XIAP-UBA WT; source: E. coli BL21 (DE3), purified) RIDDTIFQNPMVQEAIRMGFSFKDIKKIMEEKIQISGSNYKSLEVLVADLVNAQKDSMQ ~900 µM

# credit: paper PMC3240630
